target_of_assay: Signal transducer and activator of transcription 1-alpha/beta (Homo sapiens) (UniProt P42224)
Sequence (whole entry): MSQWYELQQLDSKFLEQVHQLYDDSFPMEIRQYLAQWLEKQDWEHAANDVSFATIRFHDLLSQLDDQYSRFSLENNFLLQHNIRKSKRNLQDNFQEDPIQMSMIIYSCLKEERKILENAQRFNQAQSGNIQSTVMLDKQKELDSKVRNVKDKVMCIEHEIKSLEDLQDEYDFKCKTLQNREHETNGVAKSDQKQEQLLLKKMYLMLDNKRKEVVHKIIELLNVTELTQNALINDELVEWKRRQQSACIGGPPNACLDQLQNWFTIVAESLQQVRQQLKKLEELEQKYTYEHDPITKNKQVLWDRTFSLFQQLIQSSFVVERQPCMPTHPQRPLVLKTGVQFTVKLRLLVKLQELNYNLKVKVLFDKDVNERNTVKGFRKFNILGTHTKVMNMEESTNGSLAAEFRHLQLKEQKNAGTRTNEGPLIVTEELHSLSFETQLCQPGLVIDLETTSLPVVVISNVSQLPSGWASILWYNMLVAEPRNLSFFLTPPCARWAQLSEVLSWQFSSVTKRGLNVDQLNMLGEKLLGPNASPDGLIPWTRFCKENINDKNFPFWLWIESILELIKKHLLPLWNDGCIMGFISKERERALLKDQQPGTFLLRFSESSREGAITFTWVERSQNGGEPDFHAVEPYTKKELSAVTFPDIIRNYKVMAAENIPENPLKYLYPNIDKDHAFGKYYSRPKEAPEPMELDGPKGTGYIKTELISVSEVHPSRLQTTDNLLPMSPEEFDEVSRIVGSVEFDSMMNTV
procedure_details: Inhibition of STAT1 SH2 domain at 200 uM
measurement_type: inhibition (%)

(P) O=C(/C=C/c1ccc(O)c(O)c1)O[C@@H](C(=O)O)[C@@H](OC(=O)/C=C/c1ccc(O)c(O)c1)C(=O)O
(Q) O=C(/C=C/c1ccc(O)c(O)c1)O[C@H](Cc1ccc(O)c(O)c1)C(=O)O
(R) O=C(/C=C/c1ccc(O)c(O)c1)O[C@@H](C(=O)O)[C@@H](O)C(=O)O
(S) O=C(/C=C/c1ccc(O)c(O)c1)O[C@@H]1C[C@@](OC(=O)/C=C/c2ccc(O)c(O)c2)(C(=O)O)C[C@@H](O)[C@@H]1O
(T) O=C(/C=C/c1ccc(O)c(O)c1)O[C@@H]1C[C@](O)(C(=O)O)C[C@@H](O)[C@H]1O
# rank_down: sort by inhibition, max first To answer, write out the labels according to the requested order.
Q, R, S, P, T
(Q: 38%, R: 19%, S: 4%, P: 0%, T: -3%)

Source of measurements: ChEMBL document CHEMBL1158427
